protocol.text: Agonist activity at ComD1 receptor in Streptococcus pneumoniae D39 harboring pcomX/lacZ reporter gene incubated for 30 mins by ONPG based beta-galactosidase assay
Non-standard residues stand in square brackets, D forms with d. Residues, ends and D or L forms follow the SMILES beside them. NMeR = CN[C@@H](CCCNC(=N)N)C(=O)O
result.type: pEC50
pEC50 is a log-scale quantity: -log10 of the concentration expressed in molar.

Q: Write down pEC50 measured for item CC[C@H](C)[C@H](NC(=O)[C@H](Cc1ccccc1)NC(=O)[C@H](CC(=O)O)NC(=O)[C@H](CCCNC(=N)N)NC(=O)[C@H](Cc1ccccc1)NC(=O)[C@H](Cc1ccccc1)NC(=O)[C@H](CCCCN)NC(=O)[C@H](CO)NC(=O)[C@H](CC(C)C)NC(=O)[C@H](CCCNC(=N)N)NC(=O)[C@H](CCSC)NC(=O)[C@@H](N)CCC(=O)O)C(=O)N[C@@H](CC(C)C)C(=O)N[C@@H](CCC(N)=O)C(=O)N(C)[C@@H](CCCNC(=N)N)C(=O)O (H-EMRLSKFFRDFILQ[NMeR]-OH)
A: 6.89

====

Test system: Streptococcus pneumoniae D39
protocol.text: Agonist activity at ComD1 receptor in Streptococcus pneumoniae D39 harboring pcomX/lacZ reporter gene at 10 uM incubated for 30 mins by ONPG based beta-galactosidase assay relative to native CSP1
Calls of active or inactive are those of the source. No cut-off for these calls is given here. Non-standard residues stand in square brackets, D forms with d. Residues, ends and D or L forms follow the SMILES beside them. NMeF = CN[C@@H](Cc1ccccc1)C(=O)O; NMeI = CC[C@H](C)[C@H](NC)C(=O)O; NMeD = CN[C@@H](CC(=O)O)C(=O)O; NMeS = CN[C@@H](CO)C(=O)O
result.type: Activity

The cases that follow already have their Activity on record.
molecule	tested.system	Activity
CC[C@H](C)[C@H](NC(=O)[C@H](CCCNC(=N)N)NC(=O)[C@H](CCSC)NC(=O)[C@@H](N)CCC(=O)O)C(=O)N[C@@H](CO)C(=O)N[C@@H](CCCNC(=N)N)C(=O)N[C@H](C(=O)N[C@H](C(=O)N[C@@H](CC(C)C)C(=O)N(C)[C@@H](CC(=O)O)C(=O)N[C@@H](Cc1ccccc1)C(=O)N[C@@H](CC(C)C)C(=O)N[C@@H](Cc1ccccc1)C(=O)O)[C@@H](C)CC)[C@@H](C)CC (H-EMRISRIIL[NMeD]FLF-OH)	Streptococcus pneumoniae D39	inactive
CC[C@H](C)[C@@H](C(=O)N[C@@H](CC(C)C)C(=O)N[C@@H](CCC(N)=O)C(=O)N[C@@H](CCCNC(=N)N)C(=O)O)N(C)C(=O)[C@H](Cc1ccccc1)NC(=O)[C@H](CC(=O)O)NC(=O)[C@H](CCCNC(=N)N)NC(=O)[C@H](Cc1ccccc1)NC(=O)[C@H](Cc1ccccc1)NC(=O)[C@H](CCCCN)NC(=O)[C@H](CO)NC(=O)[C@H](CC(C)C)NC(=O)[C@H](CCCNC(=N)N)NC(=O)[C@H](CCSC)NC(=O)[C@@H](N)CCC(=O)O (H-EMRLSKFFRDF[NMeI]LQR-OH)	Streptococcus pneumoniae D39	inactive
CC[C@H](C)[C@H](NC(=O)[C@H](Cc1ccccc1)NC(=O)[C@H](CC(=O)O)N(C)C(=O)[C@H](CCCNC(=N)N)NC(=O)[C@H](Cc1ccccc1)NC(=O)[C@H](Cc1ccccc1)NC(=O)[C@H](CCCCN)NC(=O)[C@H](CO)NC(=O)[C@H](CC(C)C)NC(=O)[C@H](CCCNC(=N)N)NC(=O)[C@H](CCSC)NC(=O)[C@@H](N)CCC(=O)O)C(=O)N[C@@H](CC(C)C)C(=O)N[C@@H](CCC(N)=O)C(=O)N[C@@H](CCCNC(=N)N)C(=O)O (H-EMRLSKFFR[NMeD]FILQR-OH)	Streptococcus pneumoniae D39	inactive
CC[C@H](C)[C@H](NC(=O)[C@H](Cc1ccccc1)N(C)C(=O)[C@H](CC(=O)O)NC(=O)[C@H](CCCNC(=N)N)NC(=O)[C@H](Cc1ccccc1)NC(=O)[C@H](Cc1ccccc1)NC(=O)[C@H](CCCCN)NC(=O)[C@H](CO)NC(=O)[C@H](CC(C)C)NC(=O)[C@H](CCCNC(=N)N)NC(=O)[C@H](CCSC)NC(=O)[C@@H](N)CCC(=O)O)C(=O)N[C@@H](CC(C)C)C(=O)N[C@@H](CCC(N)=O)C(=O)N[C@@H](CCCNC(=N)N)C(=O)O (H-EMRLSKFFRD[NMeF]ILQR-OH)	Streptococcus pneumoniae D39	inactive

Let us examine a further case.
Q: State its Activity: CC[C@H](C)[C@H](NC(=O)[C@H](Cc1ccccc1)NC(=O)[C@H](CC(=O)O)NC(=O)[C@H](CCCNC(=N)N)NC(=O)[C@H](Cc1ccccc1)NC(=O)[C@H](Cc1ccccc1)NC(=O)[C@H](CCCCN)NC(=O)[C@H](CO)N(C)C(=O)[C@H](CC(C)C)NC(=O)[C@H](CCCNC(=N)N)NC(=O)[C@H](CCSC)NC(=O)[C@@H](N)CCC(=O)O)C(=O)N[C@@H](CC(C)C)C(=O)N[C@@H](CCC(N)=O)C(=O)N[C@@H](CCCNC(=N)N)C(=O)O (H-EMRL[NMeS]KFFRDFILQR-OH)
A: > 75%

====

protocol.text: Agonist activity at ComD2 receptor in Streptococcus pneumoniae TIGR4 harboring pcomX/lacZ reporter gene incubated for 30 mins by ONPG based beta-galactosidase assay
Non-standard residues stand in square brackets, D forms with d. Residues, ends and D or L forms follow the SMILES beside them. NMeI = CC[C@H](C)[C@H](NC)C(=O)O
result.type: EC50

Q: Look up EC50 of CC[C@H](C)[C@H](NC(=O)[C@H](CCCNC(=N)N)NC(=O)[C@H](CO)NC(=O)[C@H]([C@@H](C)CC)N(C)C(=O)[C@H](CCCNC(=N)N)NC(=O)[C@H](CCSC)NC(=O)[C@@H](N)CCC(=O)O)C(=O)N[C@H](C(=O)N[C@@H](CC(C)C)C(=O)N[C@@H](CC(=O)O)C(=O)N[C@@H](Cc1ccccc1)C(=O)N[C@@H](CC(C)C)C(=O)N[C@@H](Cc1ccccc1)C(=O)O)[C@@H](C)CC (H-EMR[NMeI]SRIILDFLF-OH) and report it.
A: > 1000 nM

====

Test system: Streptococcus pneumoniae D39
protocol.text: Agonist activity at ComD1 receptor in Streptococcus pneumoniae D39 harboring pcomX/lacZ reporter gene at 10 uM incubated for 30 mins by ONPG based beta-galactosidase assay relative to native CSP1
Non-standard residues stand in square brackets, D forms with d. Residues, ends and D or L forms follow the SMILES beside them. NMeR = CN[C@@H](CCCNC(=N)N)C(=O)O
result.type: Activity

Q: Answer with the recorded Activity of CC[C@H](C)[C@H](NC(=O)[C@H](Cc1ccccc1)NC(=O)[C@H](CC(=O)O)NC(=O)[C@H](CCCNC(=N)N)NC(=O)[C@H](Cc1ccccc1)NC(=O)[C@H](Cc1ccccc1)NC(=O)[C@H](CCCCN)NC(=O)[C@H](CO)NC(=O)[C@H](CC(C)C)NC(=O)[C@H](CCCNC(=N)N)NC(=O)[C@H](CCSC)NC(=O)[C@@H](N)CCC(=O)O)C(=O)N[C@@H](CC(C)C)C(=O)N[C@@H](CCC(N)=O)C(=O)N(C)[C@@H](CCCNC(=N)N)C(=O)O (H-EMRLSKFFRDFILQ[NMeR]-OH) only.
A: > 75%

====

Tested on: Streptococcus pneumoniae TIGR4
protocol.text: Agonist activity at ComD2 receptor in Streptococcus pneumoniae TIGR4 harboring pcomX/lacZ reporter gene at 10 uM incubated for 30 mins by ONPG based beta-galactosidase assay relative to native CSP2
Non-standard residues stand in square brackets, D forms with d. Residues, ends and D or L forms follow the SMILES beside them. NMeD = CN[C@@H](CC(=O)O)C(=O)O
result.type: Activity

Q: Print Streptococcus pneumoniae TIGR4 Activity for CC[C@H](C)[C@H](NC(=O)[C@H](CCCNC(=N)N)NC(=O)[C@H](CCSC)NC(=O)[C@@H](N)CCC(=O)O)C(=O)N[C@@H](CO)C(=O)N[C@@H](CCCNC(=N)N)C(=O)N[C@H](C(=O)N[C@H](C(=O)N[C@@H](CC(C)C)C(=O)N(C)[C@@H](CC(=O)O)C(=O)N[C@@H](Cc1ccccc1)C(=O)N[C@@H](CC(C)C)C(=O)N[C@@H](Cc1ccccc1)C(=O)O)[C@@H](C)CC)[C@@H](C)CC (H-EMRISRIIL[NMeD]FLF-OH) .
A: > 75%

====

protocol.text: Solubility of the compound in ammonium carbonate solution at pH 8
Assay type: physicochemical
assay.conditions: buffer
Non-standard residues stand in square brackets, D forms with d. Residues, ends and D or L forms follow the SMILES beside them. NMeR = CN[C@@H](CCCNC(=N)N)C(=O)O; NMeF = CN[C@@H](Cc1ccccc1)C(=O)O; NMeI = CC[C@H](C)[C@H](NC)C(=O)O; NMeE = CN[C@@H](CCC(=O)O)C(=O)O; NMeM = CN[C@@H](CCSC)C(=O)O; NMeS = CN[C@@H](CO)C(=O)O
result.type: solubility

Please review the entries below; each comes with its answer.
molecule	solubility
CC[C@H](C)[C@H](NC(=O)[C@H](CCCNC(=N)N)NC(=O)[C@H](CCSC)N(C)C(=O)[C@@H](N)CCC(=O)O)C(=O)N[C@@H](CO)C(=O)N[C@@H](CCCNC(=N)N)C(=O)N[C@H](C(=O)N[C@H](C(=O)N[C@@H](CC(C)C)C(=O)N[C@@H](CC(=O)O)C(=O)N[C@@H](Cc1ccccc1)C(=O)N[C@@H](CC(C)C)C(=O)N[C@@H](Cc1ccccc1)C(=O)O)[C@@H](C)CC)[C@@H](C)CC (H-E[NMeM]RISRIILDFLF-OH)	Insoluble
CC[C@H](C)[C@H](NC(=O)[C@H](CCCNC(=N)N)NC(=O)[C@H](CCSC)NC(=O)[C@H](CCC(=O)O)NC)C(=O)N[C@@H](CO)C(=O)N[C@@H](CCCNC(=N)N)C(=O)N[C@H](C(=O)N[C@H](C(=O)N[C@@H](CC(C)C)C(=O)N[C@@H](CC(=O)O)C(=O)N[C@@H](Cc1ccccc1)C(=O)N[C@@H](CC(C)C)C(=O)N[C@@H](Cc1ccccc1)C(=O)O)[C@@H](C)CC)[C@@H](C)CC (H-[NMeE]MRISRIILDFLF-OH)	Insoluble
CC[C@H](C)[C@H](NC(=O)[C@H](CCCNC(=N)N)NC(=O)[C@H](CO)N(C)C(=O)[C@@H](NC(=O)[C@H](CCCNC(=N)N)NC(=O)[C@H](CCSC)NC(=O)[C@@H](N)CCC(=O)O)[C@@H](C)CC)C(=O)N[C@H](C(=O)N[C@@H](CC(C)C)C(=O)N[C@@H](CC(=O)O)C(=O)N[C@@H](Cc1ccccc1)C(=O)N[C@@H](CC(C)C)C(=O)N[C@@H](Cc1ccccc1)C(=O)O)[C@@H](C)CC (H-EMRI[NMeS]RIILDFLF-OH)	Insoluble
CC[C@H](C)[C@H](NC(=O)[C@H](CCCNC(=N)N)NC(=O)[C@H](CCSC)NC(=O)[C@@H](N)CCC(=O)O)C(=O)N[C@@H](CO)C(=O)N[C@@H](CCCNC(=N)N)C(=O)N(C)[C@H](C(=O)N[C@H](C(=O)N[C@@H](CC(C)C)C(=O)N[C@@H](CC(=O)O)C(=O)N[C@@H](Cc1ccccc1)C(=O)N[C@@H](CC(C)C)C(=O)N[C@@H](Cc1ccccc1)C(=O)O)[C@@H](C)CC)[C@@H](C)CC (H-EMRISR[NMeI]ILDFLF-OH)	Insoluble
CC[C@H](C)[C@H](NC(=O)[C@H](CCCNC(=N)N)NC(=O)[C@H](CCSC)NC(=O)[C@@H](N)CCC(=O)O)C(=O)N[C@@H](CO)C(=O)N(C)[C@@H](CCCNC(=N)N)C(=O)N[C@H](C(=O)N[C@H](C(=O)N[C@@H](CC(C)C)C(=O)N[C@@H](CC(=O)O)C(=O)N[C@@H](Cc1ccccc1)C(=O)N[C@@H](CC(C)C)C(=O)N[C@@H](Cc1ccccc1)C(=O)O)[C@@H](C)CC)[C@@H](C)CC (H-EMRIS[NMeR]IILDFLF-OH)	Insoluble

Now consider a different molecule.
Q: Write down solubility measured for item CC[C@H](C)[C@H](NC(=O)[C@H](CCCNC(=N)N)NC(=O)[C@H](CCSC)NC(=O)[C@@H](N)CCC(=O)O)C(=O)N[C@@H](CO)C(=O)N[C@@H](CCCNC(=N)N)C(=O)N[C@H](C(=O)N[C@H](C(=O)N[C@@H](CC(C)C)C(=O)N[C@@H](CC(=O)O)C(=O)N[C@@H](Cc1ccccc1)C(=O)N[C@@H](CC(C)C)C(=O)N(C)[C@@H](Cc1ccccc1)C(=O)O)[C@@H](C)CC)[C@@H](C)CC (H-EMRISRIILDFL[NMeF]-OH)
A: Insoluble
